Tested on: Mus musculus
Experiment: Percentage change in seizure threshold by pentylenetetrazole infusion method in mouse at a dose of 30 mg/Kg administered perorally; Inactive
Type: functional, organism-based
Activity calls are given as the source filed them.
PARAMETER: Change

{"MOL_SMILES": "CCc1cc2c(ncc3c(=O)n(-c4ccc(Cl)cc4)[nH]c32)s1", "Change": "inactive"}
{"MOL_SMILES": "Cn1cc2c(=O)n(-c3ccc(Cl)cc3)nc-2c2sccc21", "Change": "inactive"}
{"MOL_SMILES": "O=c1c2cnc3c4ccccc4sc3c2[nH]n1-c1ccc(Cl)cc1", "Change": "inactive"}
{"MOL_SMILES": "Cn1c2c(cnc3ccsc32)c(=O)n1-c1ccc(Cl)cc1", "Change": "inactive"}
{"MOL_SMILES": "COc1c2cnc3ccsc3c2nn1-c1ccc(Cl)cc1", "Change": "inactive"}

Switching to the query record.
Measured Change for this entry Clc1ccc(-n2nc3c(cnc4ccsc43)c2Cl)cc1 on Mus musculus: inactive

Source: ChEMBL document CHEMBL1125084
